Below, each entry is listed alongside its reported IC50.
target: recombinant ERO1A (Mus musculus); construct: GST-SMT3-mouse ERO1A (residues 43–464); GST-SMT3 (GST-SUMO) (N, cleaved yes); made in house; host or cells: E. coli Rosetta DE3 (Novagen); assay: AUR-based kinetic assay of ERO1A activity (recombinant ERO1A and PDIA1, HRP, Amplex Ultra Red); type: biochemical; conditions: logarithm of IC50 in μM; compounds dissolved in DMSO; Table 1 in Fig. 3; read-out: Log IC50 (confidence intervals) (converted)
Sequence (Q8R180 43-464): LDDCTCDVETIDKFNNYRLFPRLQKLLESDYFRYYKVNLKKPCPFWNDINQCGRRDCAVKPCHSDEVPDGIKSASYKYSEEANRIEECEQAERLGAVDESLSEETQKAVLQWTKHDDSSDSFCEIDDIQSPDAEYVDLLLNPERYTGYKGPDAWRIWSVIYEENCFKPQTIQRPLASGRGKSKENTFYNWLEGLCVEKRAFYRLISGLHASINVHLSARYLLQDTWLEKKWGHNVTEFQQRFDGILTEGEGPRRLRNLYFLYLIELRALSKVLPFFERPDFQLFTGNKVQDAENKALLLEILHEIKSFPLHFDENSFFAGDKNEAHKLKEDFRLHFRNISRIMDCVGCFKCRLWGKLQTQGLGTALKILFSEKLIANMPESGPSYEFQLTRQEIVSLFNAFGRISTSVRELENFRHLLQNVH
Field format: number, assumed µM, no unit text.

Take a look at these entries with their results.
{"columns": ["compound", "tgt", "IC50, µM"],
 "data": [
  ["O=C1/C(=C/c2ccc(-c3ccccc3)o2)C(C(F)(F)F)=NN1c1cccc2ccccc12", "recombinant ERO1A (Mus musculus)", 8.51],
  ["COc1ccccc1N1N=C(C(F)(F)F)/C(=C\\c2ccc(-c3ccccc3)o2)C1=O", "recombinant ERO1A (Mus musculus)", 8.51],
  ["O=C(O)c1cc(N2N=C(C(F)(F)F)/C(=C\\c3ccc(-c4ccccc4)o3)C2=O)ccc1Cl [EN460, reference compound]", "recombinant ERO1A (Mus musculus)", 5.89],
  ["O=C1/C(=C/c2ccc(-c3ccccc3)o2)C(C(F)(F)F)=NN1c1ccccc1Cl", "recombinant ERO1A (Mus musculus)", 4.79],
  ["O=C(O)c1cc(N2N=C(C(F)(F)F)/C(=C\\c3ccc(-c4cccc(C(F)(F)F)c4)o3)C2=O)ccc1Cl", "recombinant ERO1A (Mus musculus)", 5.62]
]}

Lookup: What value of IC50 on recombinant ERO1A (Mus musculus) does `O=C1/C(=C/c2ccc(-c3ccccc3)o2)C(C(F)(F)F)=NN1c1cccnc1` have?
Found: 19.1

Lookup: Provide the documented IC50 with recombinant ERO1A (Mus musculus) as the system for `Cc1cccc(C)c1N1N=C(C(F)(F)F)/C(=C\c2ccc(-c3ccccc3)o2)C1=O`
Found: 6.46

Lookup: // fetch recombinant ERO1A (Mus musculus) IC50 for `O=C1/C(=C/c2ccc(-c3ccccc3)o2)C(C(F)(F)F)=NN1c1ccccc1F`
Found: 2.63

Lookup: Param readout = IC50; param system = recombinant ERO1A (Mus musculus); param query = `Cc1ccccc1N1N=C(C(F)(F)F)/C(=C\c2ccc(-c3ccccc3)o2)C1=O` ; response: value
Found: 17.8

Lookup: Value wanted: IC50 (recombinant ERO1A (Mus musculus)) of entry `O=C1/C(=C/c2ccc(-c3ccccc3)o2)C(C(F)(F)F)=NN1c1cc(F)ccc1F`
Found: 10.7
